Hey, just so you know, these numbers are from PubChem BioAssay (NCI).

Tested on: A498 renal
measurement-description: NCI tumour cell line growth inhibition, 48 h
Kindly supply the reported TGI values for the records listed here.
Note: unit µM is implicit; provide only the numeric part.

Given Cc1nc(Nc2ccccn2)sc1C(=O)/C=C/c1ccc(Cl)cc1 , state its recorded TGI.
0.626

# input molecule: C1=C2CCCC3=Cc4ccccc4OC23Oc2ccccc21 ; wanted: its TGI
13.1

State the recorded TGI for this entry: COC(=O)C1=C(C(=O)OC)C2(C)C=CC1O2 (configuration not stated)
54

Fill blank: measured TGI of the molecule COc1cc2c(cc1OCCCCCCN1CCN(CC(=O)Nc3ccc(Cl)cc3C(=O)c3ccccc3Cl)CC1)N=CC1CCCN1C2=O (configuration not stated) is ____.
1

What TGI value was documented for this molecule, Cc1nnc2n1N=C(c1ccc(Cl)cc1Cl)/C(=C/c1ccc(-c3ccc([N+](=O)[O-])cc3Cl)o1)S2 ?
95.8

Recorded TGI of C=C=C(CC(CC(=C)Br)(C(=O)OC)C(=O)OC)S(=O)(=O)c1ccccc1 , please.
14.7

Name the reported TGI value associated with the molecule Cc1c(C(=O)OCc2ccccc2)[n+](=O)c2cc(Cl)c(Cl)cc2n1[O-]
35.6

# lookup: TGI of OCc1ccc(-c2cscc2-c2ccc(CO)o2)o1
0.0381

Look up TGI for this molecule: COc1cccc(N[C@@H]2c3cc4c(cc3C(c3cc(OC)c(O)c(OC)c3)[C@H]3C(=O)OCC32)OCO4)c1 (some centres not stated)
2.1

Suppose we examine the molecule COc1ccc(C(O)c2cc3c(N)c(C(=O)Nc4cccc(Cl)c4)sc3nc2C)cc1 (configuration not stated) ; what TGI value has been reported?
2.38

* * *

Test system: HCT-116 colon
measurement-description: NCI tumour cell line growth inhibition, 48 h
assay-metric: TGI

Recorded TGI for COc1cc2c(cc1O)CC1c3c(cc(O)c(OC)c3-2)CCN1C (stereo unspecified) , please?
> 100 µM

Value lookup for TGI; key = CN(C)Cc1cc(C(=O)/C=C/c2ccccc2)cc(CN(C)C)c1O
87.8 µM

Need TGI of COc1cccc(C=O)c1[O-].[O]=[U](=[O])([OH2+])[OH2+] , thanks.
> 100 µM

Using the record for COc1ccc2cc(CNCCCCCCNCc3ccc4cc(OC)ccc4c3)ccc2c1 , report its TGI.
0.324 µM

Tell me the measured TGI of CN(C)c1nc2ccccc2c2c1c1c(n2Cc2ccccc2)-c2ccccc2C1=O , please.
> 100 µM

Give its TGI value. Item: C=C=C(CC(CC(=C)Br)(C(=O)OC)C(=O)OC)S(=O)(=O)c1ccccc1
2.22 µM

Which measured TGI value corresponds to Cc1nc(N)c(N2CCN(CN)CC2)c(=O)[nH]1 ?
> 100 µM

Consider the compound Cn1c(-c2ccc(/C=N/NC(=S)N/N=C/c3ccc(-c4c[n+]5ccsc5n4C)cc3)cc2)c[n+]2ccsc12 and give its measured TGI.
> 100 µM

Give the measured TGI of C#CCn1c(=O)c(C)cn(/C(=C\C(=O)OCC)C(=O)OCC)c1=O .
10.3 µM

Need TGI of N#Cc1cc2c(n(C3OC(CO)C(O)C(O)C3O)c1=S)CCCCCC2 (stereo unspecified) , thanks.
> 100 µM

Consider the compound COc1ccc(C(=O)CC(c2ccccc2)[C@H]2C(c3ccc(OC)cc3)=Nc3c(nc(SC)n(C)c3=O)NC2c2ccccc2)cc1 (stereo partly specified) and give its measured TGI.
> 100 µM

May I ask what TGI has been recorded for CN(C)CCCNc1ccc2nnn3c4ccc(O)cc4c(=O)c1c23 ?
16 µM

Need TGI, item Cc1nn(-c2ccccc2)c(C)c1/C=N/N=C1\S/C(=C\c2ccc(Cl)cc2)C(=O)N1c1ccccc1
> 100 µM

Query (compound): C=CC(=O)Nc1cc(N2CCN(CC)CC2)ccc1Nc1cc(N(C)C(=O)Nc2c(Cl)c(OC)cc(OC)c2Cl)ncn1 ; field requested: TGI
14.2 µM

Fill blank: measured TGI of the compound Cc1cc(OC(=O)NCn2cc(-c3ccccc3)nn2)ccc1Cl is ____.
> 100 µM

Which TGI is reported for this compound? COc1ccc(CCc2cc(OC)cc(OC)c2)cc1
> 100 µM

// lookup TGI for CCCCCC[C@H](C)Nc1nc2ccccc2c2occc12
13.3 µM

Quick one: TGI of O=C1CC(=O)n2cnc3cccc(c32)N1 ?
> 100 µM

# lookup: TGI of C1=C2CCCC3=Cc4ccccc4OC23Oc2ccccc21
> 100 µM

Any idea what its TGI is? The compound is O=C(O)c1ccccc1N=Cc1ccc(N(CCCl)CCCl)cc1
> 100 µM

May I ask what TGI has been recorded for C/C(=N\Nc1nc2cc(C(F)(F)F)ccc2s1)c1ccccn1 ?
2.98 µM

* * *

Tested on: OVCAR-8 ovarian
measurement-description: NCI tumour cell line growth inhibition, 48 h
Please respond with reported TGI for every item in the list.

Reported TGI, compound C=CCC1=C(C)C[C@@H]2CCC(=O)C=C12 : ____
> 100 µM

Which TGI is reported for this compound? O=C1CC(c2[nH]nc3ccccc23)C(=O)N1c1ccccc1 (stereo not given)
> 100 µM

Look at this compound and give its reported TGI. COc1ccc(Nc2ccc3ccccc3c2-c2c(O)ccc3ccccc23)cc1
33.6 µM

Param item = CCOP(=O)(OCC)/C(=C/c1cccs1)CC(C)=O ; retrieve measured TGI.
> 100 µM

# query: TGI of entry C/C(=N\Nc1nc2cc(C(F)(F)F)ccc2s1)c1ccccn1
1.93 µM

Fill in: TGI of O=C([O][Sn]([O]C(=O)c1ccccn1)([c]1ccccc1)[c]1ccccc1)c1ccccn1 is ___
24 µM

Entry CC(=O)OCC(=O)[C@@]12OC(C)(C)O[C@@H]1C[C@H]1[C@@H]3CC(C=O)=C4C=C(OCCCl)CC[C@]4(C)[C@@]3(F)[C@@H](O)C[C@@]12C has what TGI?
> 100 µM

Name the reported TGI value associated with the compound C/C(=N\Nc1nc2ccccc2n1C)c1cc2ccccc2cn1
4.24 µM

Recorded TGI for c1ccc(CN2CCC(Nc3ccccc3)(c3nnnn3Cc3ccccc3)CC2)cc1 , please?
> 100 µM

// lookup TGI for Cc1ccc(S(=O)(=O)c2ccccc2[N+](=O)[O-])cc1
> 100 µM

// query TGI value for entry NN=C(CC(O)(C(F)(F)Cl)C(F)(F)Cl)CC(O)(C(F)(F)Cl)C(F)(F)Cl
> 10 µM

Consider the compound O=C1/C(=C/c2ccccc2)CN(C(=O)CCN2CCCC2)C/C1=C\c1ccccc1 and give its measured TGI.
6.17 µM

Please look up its TGI: C=C1CCC2(C#N)[C@H]3[C@H](CC[C@@H]2C)[C@@H](C)C[C@@H](CC(C)(C)NC(=O)CN2CCC2=O)[C@H]13 (stereo not given in full)
38.1 µM

What does the data say about its TGI? Entry: Cc1ccccc1N=C(N)Nc1ccccc1C
> 100 µM

Data request, read-out TGI, for CN(C)CCSS(=O)(=O)O
> 100 µM

Quick one: TGI of CN(C)CCn1c(CO)nc2c1c(=O)n(C)c(=O)n2C ?
> 100 µM

Query: TGI; subject: COc1ccc2[nH]c(O)c(/C=c3/cc4c(c(-c5ccc(F)c(OC)c5)n3)=Nc3ccccc3-4)c2c1
11.8 µM

For the compound NCc1cccc(O)c1O , what TGI is on record?
> 100 µM

Any idea what TGI was measured for CN1CC2=C(NC(=S)NC2c2ccccc2)/C(=C/c2ccccc2)C1 (stereo not given) ?
> 10 µM

Entry CCCCCCCCCCCCCCCCCCNc1nc(=O)n(C2CC(O)C(COP(=O)(O)O)O2)cc1F (stereo not given) has what TGI?
> 100 µM

Give its TGI value. Item: O=C(Oc1ccc(CO[N+](=O)[O-])cc1)c1ccccc1
0.288 µM

# TGI lookup, item C1=C2CCCC3=Cc4ccccc4OC23Oc2ccccc21
> 100 µM

I am curious: what TGI value has been reported for COC(=O)CC(NC(=O)OCc1ccccc1)C(C(=O)OCc1ccccc1)C(C)(OC)OC (stereo not given) ?
> 100 µM

// TGI lookup, key: COC(=O)c1c2c(cc3c1CC1(Cc4cc5c(c(C(C)=O)c4C1)CCC5)C3)CCC2 (stereo not given)
> 100 µM

Reported TGI for C#CCn1c(=O)c(C)cn(/C(=C\C(=O)OCC)C(=O)OCC)c1=O : what is it?
13.2 µM

* * *

Tested on: M14 melanoma
measurement-description: NCI tumour cell line growth inhibition, 48 h
assay-metric: TGI

I am curious: what TGI value has been reported for Cc1ccc(N=Nc2c(O)ccc3ccccc23)cc1 ?
> 100 µM

Request the reported TGI associated with COC(=O)COc1ccc(/C=C2/N=C(c3ccccc3)N(c3c(C)n(C)n(-c4ccccc4)c3=O)C2=O)cc1
> 100 µM

# input compound: S=c1nc(N/N=C/c2ccco2)c2cn[nH]c2[nH]1 ; wanted: its TGI
> 100 µM

Sample C[Si](C)(C)/C=C\CCO — what was its TGI?
> 100 µM

I am curious: what TGI value has been reported for COc1cc(C2C3=C(COC3=O)Oc3cc4c(cc32)OCO4)cc(OC)c1O (stereo not given) ?
> 100 µM

What measured TGI goes with C=C1CCC2(C#N)[C@H]3[C@H](CC[C@@H]2C)[C@@H](C)C[C@@H](CC(C)(C)NC(=O)CN2CCC2=O)[C@H]13 (stereo not given in full) ?
17.8 µM

What value of TGI has been recorded for this entry: NCC(O)CSCc1ccc(Cl)cc1 (stereo not given)
> 100 µM

Param item = O=C1C=CC(=O)c2c(O)c(NCCOCCO)c(Cl)c(O)c21 ; retrieve measured TGI.
23.5 µM

Give its TGI value. Item: CCOC(=O)N1CCc2cc(OC)c(OC)cc2/C1=C\c1ccc(OC)c(OC)c1
> 10 µM

Param item = O=C(N/N=C/C=C/c1ccccc1)c1ccccc1Nc1ccccc1C(=O)N/N=C/C=C/c1ccccc1 ; retrieve measured TGI.
> 100 µM
